// provenance: patent US20250026813A1

Measured Target: full soluble spike trimer of SARS-CoV-2 virus (stabilised, in-house) (SARS-CoV-2, UniProt P0DTC2 14-1208; P10104 458-484)
Measured Quantity: IC50 (nM)
# number only, unit nM dropped from output

Example entries begin here.
>>> experimental_value("IMPI-055 (antibody, V domains shown) VH: QVQLVQSGAEVKKPGASVKVSCKASGYTFTSYDINWVRQATGQGLEWMGWMNPNSGNTGYAQKFQGRVTMTRDTSINTAYMELSSLRSEDTAVYFCARGGRYCSDVTCYSGEPFDYWGQGTLVTVSS VL: EIMLTQSPDFQSVTPKEKVTITCRASQSIGSSLHWYQQKPDQSPKLLIKFASQSISGVPSRFSGSGSGTDFTLTINSLEAEDAAAYYCHQSSSLPHTFGPGTKVEIK")
4.5
>>> experimental_value("IMPI-004 (antibody, V domains shown) VH: QVQLVESGGGVVQPGRSLRLSCAASGFTFSSYGMHWVRQAPGKGLEWVAVIWYDGGNKYYADSVKGRFTISRDNSKNTLYLQMNSLRAEDTAVYYCARVNVLMGYGMDVWGQGTTVTVSS VL: EIVLTQSPGTLSLSPGDKATLSCRASQSIISSFLAWYQQKPGQAPRLLIYGASSRATGIPDRFSGSGSGTDFTLTISRLEPEDFAVYYCQQYGSSLTFGGGTKVEIK")
4.09

Field: next binder
QUERY: Give the measured IC50 for IMPI-005 (antibody, V domains shown) VH: EVQLVESGGGLIQPGGSLRLSCAASGFTVSSNYMNWVRQAPGKGLEWVSVIYSGGSTYYADSVKGRFTISRDNSKNTLFLQMNSLRAEDSAVYYCARDLGPYGVDVWGQGTTVTVSS VL: DIQLTQSPSFLSASVGDRVTITCWASQGISSYLAWYQQKPGKAPKLLIYAASTLQSGVPSRFSGSGSGTEFTLTISSLQPEDFATYYCQELNSYPLTFGQGTRLEIK
RESULT: 13.1
